Entries annotated with measured Activity
tested on: Cavia porcellus; experiment: Antihistaminic activity in Dunkin-Hartley guinea pig assessed as protection against histamine-induced bronchospasm at 10 mg/kg, po; type: functional
Numeric answer only, unit % assumed.

Solved cases below.
# compound, display_unit, Activity
records = [
    ("CCc1nnc2n(Cc3ccccc3)c(=O)c3ccccc3n12", "%", 74.39),
    ("O=c1c2ccccc2n2c(CN3CCCC3)nnc2n1Cc1ccccc1", "%", 73.69),
    ("CN1CCN(Cc2nnc3n(Cc4ccccc4)c(=O)c4ccccc4n23)CC1", "%", 74.83),
]

Next compound, please.
Lookup result for CCCc1nnc2n(Cc3ccccc3)c(=O)c3ccccc3n12 ; measured Activity: 73.87

* * *

test system: Mus musculus; assay: Sedative-hypnotic activity in Swiss Albino mouse assessed as reduction of locomotor activity at 5 mg/kg, po after 1 hrs; assay type: functional; design: scale not given: the % may be the effect or the level left
parameter: Activity (%)
Response body: numeric value in %, unit text excluded.

# molecule, system_tested, Activity (%)
rows = [
    ("CN(C)CC[C@@H](c1ccccc1)c1ccccn1.O=C(O)/C=C\\C(=O)O [PHENIRAMINE MALEATE]", "Mus musculus", 37),
]

Form: item O=c1c2ccccc2n2c(CN3CCNCC3)nnc2n1Cc1ccccc1 ; test system Mus musculus; Activity: 6

Mus musculus assay, molecule CCCc1nnc2n(Cc3ccccc3)c(=O)c3ccccc3n12 , recorded Activity = 9

* * *

test system: Cavia porcellus; test: Antihistaminic activity in Dunkin-Hartley guinea pig assessed as protection against histamine-induced bronchospasm at 10 mg/kg, po; assay type: functional
In this section, each of the molecules is paired with its reported Activity.
Just the number please, in %, no unit attached.

# molecule, system_tested, display_unit, Activity
measured = [
    ("O=c1c2ccccc2n2cnnc2n1Cc1ccccc1", "Cavia porcellus", "%", 73.99),
    ("O=c1c2ccccc2n2c(CN3CCCCC3)nnc2n1Cc1ccccc1", "Cavia porcellus", "%", 73.93),
    ("O=c1c2ccccc2n2c(CCl)nnc2n1Cc1ccccc1", "Cavia porcellus", "%", 72.96),
    ("CN(C)CC[C@@H](c1ccccc1)c1ccccn1.O=C(O)/C=C\\C(=O)O [PHENIRAMINE MALEATE]", "Cavia porcellus", "%", 71),
    ("Cc1nnc2n(Cc3ccccc3)c(=O)c3ccccc3n12", "Cavia porcellus", "%", 76.08),
    ("O=c1c2ccccc2n2c(CN3CCNCC3)nnc2n1Cc1ccccc1", "Cavia porcellus", "%", 74.44),
]

API: the following record is the query input.
Input O=c1c2ccccc2n2c(CN3CCOCC3)nnc2n1Cc1ccccc1 . Output Activity: 74.1

* * *

test system: Mus musculus; assay: Sedative-hypnotic activity in Swiss Albino mouse assessed as reduction of locomotor activity at 5 mg/kg, po after 1 hrs; type: functional; set-up: scale not given: the % may be the effect or the level left
Reported Activity values for a set of compounds
Numbers only; they are read as %.

Guide cases for Activity, answers given:
# sample_smiles, system_tested, Activity (%)
rows = [
    ("O=c1c2ccccc2n2cnnc2n1Cc1ccccc1", "Mus musculus", 6),
    ("O=c1c2ccccc2n2c(CCl)nnc2n1Cc1ccccc1", "Mus musculus", 5),
]

Activity reading for CCc1nnc2n(Cc3ccccc3)c(=O)c3ccccc3n12 : 7
